Where these numbers come from: paper PMC12165043

Assignment: determine reported pKi for the given molecules.
// pKi here means minus log10 of the molar concentration (mol/L)

Prompt: Return pKi measured with UniProt:A0A097BTY7 given this molecule: CC1=CCC2CC1C2(C)C (stereo not drawn)
Sequence (A0A097BTY7 23-247): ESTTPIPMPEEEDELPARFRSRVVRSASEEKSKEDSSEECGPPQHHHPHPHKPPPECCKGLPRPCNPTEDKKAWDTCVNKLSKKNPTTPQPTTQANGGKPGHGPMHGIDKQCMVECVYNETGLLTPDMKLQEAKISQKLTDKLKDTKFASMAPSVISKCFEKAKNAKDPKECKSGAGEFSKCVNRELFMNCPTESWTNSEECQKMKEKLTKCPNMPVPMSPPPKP
Completion: 4.96

Prompt: Return pKi measured with UniProt:A0A097BTY7 given this molecule: "C=C1CC/C=C(\C)CC[C@@H]2[C@@H]1CC2(C)C"
Completion: 4.97

Prompt: Return pKi measured with UniProt:A0A097BTY7 given this molecule: "Cc1ccc(C(C)C)cc1"
Completion: 4.92

Prompt: Return pKi measured with UniProt:A0A097BTY7 given this molecule: "CC1=CC=C(C(C)C)CC1"
Completion: 4.82

Prompt: Return pKi measured with UniProt:A0A097BTY7 given this molecule: C=C1C=CC(C(C)C)CC1 (stereo not drawn)
Completion: 4.72

Prompt: Return pKi measured with UniProt:A0A097BTY7 given this molecule: C=C1CCC2CC1C2(C)C (stereo not drawn)
Completion: 4.99
